# Assayed system: PI3Kα (p110α/p85α) (Homo sapiens)
# Construct: GST (N); made in house; host or cells: Baculovirus-infected Sf9 cells
# Sequence (P42336 whole entry): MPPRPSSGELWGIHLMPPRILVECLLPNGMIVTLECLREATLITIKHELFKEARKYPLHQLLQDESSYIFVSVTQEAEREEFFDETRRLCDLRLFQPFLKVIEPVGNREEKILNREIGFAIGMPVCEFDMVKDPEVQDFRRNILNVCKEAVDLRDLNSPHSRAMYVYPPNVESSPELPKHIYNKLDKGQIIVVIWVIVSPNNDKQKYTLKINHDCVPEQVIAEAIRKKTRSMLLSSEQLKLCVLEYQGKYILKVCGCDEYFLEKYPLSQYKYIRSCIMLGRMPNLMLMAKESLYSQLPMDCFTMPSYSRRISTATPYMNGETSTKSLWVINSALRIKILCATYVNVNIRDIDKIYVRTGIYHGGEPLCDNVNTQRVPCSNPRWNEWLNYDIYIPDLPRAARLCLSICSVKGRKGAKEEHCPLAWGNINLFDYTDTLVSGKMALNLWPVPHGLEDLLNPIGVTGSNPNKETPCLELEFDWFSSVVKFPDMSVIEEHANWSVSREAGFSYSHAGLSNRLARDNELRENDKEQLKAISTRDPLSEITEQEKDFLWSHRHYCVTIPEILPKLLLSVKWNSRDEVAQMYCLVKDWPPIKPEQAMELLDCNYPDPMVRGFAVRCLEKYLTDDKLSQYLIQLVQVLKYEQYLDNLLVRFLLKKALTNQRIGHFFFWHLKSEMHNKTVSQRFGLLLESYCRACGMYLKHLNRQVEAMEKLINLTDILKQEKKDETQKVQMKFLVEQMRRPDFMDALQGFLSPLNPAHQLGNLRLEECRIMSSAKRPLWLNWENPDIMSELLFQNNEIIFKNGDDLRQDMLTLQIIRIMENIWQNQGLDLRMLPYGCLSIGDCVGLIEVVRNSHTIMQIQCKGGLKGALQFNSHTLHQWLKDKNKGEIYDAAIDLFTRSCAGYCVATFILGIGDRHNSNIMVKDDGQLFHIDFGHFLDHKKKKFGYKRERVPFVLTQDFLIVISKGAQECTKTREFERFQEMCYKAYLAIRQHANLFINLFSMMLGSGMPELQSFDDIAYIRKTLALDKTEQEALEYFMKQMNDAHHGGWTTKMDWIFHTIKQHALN
# Sequence (P27986 whole entry partner): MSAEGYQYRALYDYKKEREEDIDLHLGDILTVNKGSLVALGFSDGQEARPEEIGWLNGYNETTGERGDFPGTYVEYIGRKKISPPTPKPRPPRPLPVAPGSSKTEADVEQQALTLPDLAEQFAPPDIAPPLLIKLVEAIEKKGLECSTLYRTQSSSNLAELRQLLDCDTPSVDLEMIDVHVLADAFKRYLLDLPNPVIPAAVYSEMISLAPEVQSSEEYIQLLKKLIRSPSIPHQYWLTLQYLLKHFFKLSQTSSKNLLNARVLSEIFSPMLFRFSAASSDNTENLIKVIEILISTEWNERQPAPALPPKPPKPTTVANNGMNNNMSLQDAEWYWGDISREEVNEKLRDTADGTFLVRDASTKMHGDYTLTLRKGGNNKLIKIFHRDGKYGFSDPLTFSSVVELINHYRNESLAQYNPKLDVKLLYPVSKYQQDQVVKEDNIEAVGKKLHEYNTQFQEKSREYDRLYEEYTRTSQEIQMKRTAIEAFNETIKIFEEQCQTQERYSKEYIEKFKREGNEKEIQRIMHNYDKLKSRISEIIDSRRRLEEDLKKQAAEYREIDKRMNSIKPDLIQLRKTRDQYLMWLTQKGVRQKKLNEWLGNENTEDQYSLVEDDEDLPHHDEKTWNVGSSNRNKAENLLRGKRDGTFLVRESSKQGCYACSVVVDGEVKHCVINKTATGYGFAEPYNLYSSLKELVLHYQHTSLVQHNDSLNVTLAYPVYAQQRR
# Assay: PI3Kα ADP-Glo assay
# Assay type: biochemical
# Protocol conditions: 20 μM PIP2, 10 μM ATP, 30 minutes
Readout kind: IC50

Worked cases, answers included:
Nc1ccc(-c2nc(N3CCOCC3)c3sc(CNCc4ccc(/C=C/C(=O)NO)cc4)cc3n2)cc1; 100 to 1000 nM
COc1ccccc1Nc1nc(-c2cccc3[nH]ncc23)nc2cc(CN(C)c3ncc(C(=O)NO)cn3)sc12; 100 to 1000 nM
CN(Cc1cc2nc(-c3cccc(O)c3)nc(N3CCOCC3)c2s1)c1ncc(C(=O)NO)cn1; < 100 nM

Query string: // returns reported IC50 for input "CN(Cc1cc2nc(-c3cccc(C(=O)OC(C)(C)C)c3)nc(N3CCOCC3)c2s1)c1ncc(C(=O)NO)cn1"
Result string: 1000 to 10000 nM

Query string: Using the record for "CN(Cc1cc2nc(-c3cccc(C(C)(C)O)c3)nc(N3CCOCC3)c2s1)c1ncc(C(=O)NO)cn1" , report its IC50.
Result string: > 10000 nM

Query string: Which IC50 is reported for this compound? "COc1ccc(-c2nc(N3CCOCC3)c3sc(CN(CCO)c4ncc(C(=O)NO)cn4)cc3n2)cn1"
Result string: < 100 nM

Query string: Reported IC50 for "COCc1cccc(-c2nc(N3CCOCC3)c3sc(CN(C)c4ncc(C(=O)NO)cn4)cc3n2)c1" : what is it?
Result string: 100 to 1000 nM

Query string: For "CN(Cc1cc2nc(-c3ccc(N)cc3)nc(N3CCOCC3)c2s1)c1ncc(C(=O)NO)cn1" , what is its reported IC50?
Result string: < 100 nM

Query string: Please report the recorded IC50 for "O=C(/C=C/c1ccc(CNCc2cc3nc(-c4cccc5[nH]ncc45)nc(N4CCOCC4)c3s2)cc1)NO" .
Result string: 100 to 1000 nM

Query string: Suppose we examine the compound "Cc1ncc(-c2nc(N3CCOCC3)c3sc(CN(C)c4ncc(C(=O)NO)cn4)cc3n2)s1" ; what IC50 value has been reported?
Result string: 100 to 1000 nM

Query string: Which IC50 is listed for "Cn1cc(CNc2cc3nc(-c4cccc5[nH]ncc45)nc(N4CCOCC4)c3s2)c2cc(C(=O)NO)ccc21" ?
Result string: < 100 nM

Query string: Can you share its IC50? I mean this compound: "CNc1ccc(-c2nc(N3CCOCC3)c3sc(NS(=O)(=O)c4ccc(/C=C/C(=O)NO)cc4)cc3n2)cn1"
Result string: < 100 nM

Query string: I would be grateful if you could share the reported IC50 for "N#CCCN(Cc1cc2nc(-c3cccc4[nH]ncc34)nc(N3CCOCC3)c2s1)c1ncc(C(=O)NO)cn1" .
Result string: < 100 nM

---

# Assayed system: mTor serine/threonine protein kinase (Homo sapiens)
# Construct: FLAG
# Assay: mTor kinase radioisotope assay
# Protocol conditions: 70 uM ATP, 40 minutes; read-out: m-TOR IC50
Readout kind: IC50

Some entries whose results are on file:
CC(=O)OCCN(Cc1cc2nc(-c3cccc4[nH]ncc34)nc(N3CCOCC3)c2s1)c1ncc(C(=O)NO)cn1; 1000 to 10000 nM
CN(Cc1cc2nc(-c3ccc([N+](=O)[O-])c(O)c3)nc(N3CCOCC3)c2s1)c1ncc(C(=O)NO)cn1; > 10000 nM

Could you now look at the following compound, please?
Query string: Look up IC50: "C[C@@H](O)c1cccc(-c2nc(N3CCOCC3)c3sc(CN(C)c4ncc(C(=O)NO)cn4)cc3n2)c1"
Result string: 100 to 1000 nM
